// pIC50 lookup, one value per entry
Assay: Inhibition of sheep brain dynamin 1 GTPase activity by malachite green GTPase assay
Design: species or system Ovis aries
pIC50: −log10 of the molar value.
Measured Quantity: pIC50

CCCCCCCCCCCCNC(=O)/C(C#N)=C/c1c(C)n(CCN(C)C)c2ccccc12 :: 4.49
CN(C)CCn1ccc2ccccc21 :: 3.52
CN(C)CCn1cc(CCC(=O)O)c2ccccc21 :: 3.88
Cc1c(/C=C(\C#N)C(=O)NC2CCCCC2)c2ccccc2n1CCCN(C)C :: 3.52
CCCCCCCCNC(=O)/C(C#N)=C/c1c(C)n(CCN(C)C)c2ccccc12 :: 5.04

* * *

Test: Inhibition of sheep brain dynamin 1 GTPase activity by malachite green GTPase assay
Parameters: species or system Ovis aries
Measured Quantity: IC50 (µM)

Cc1c(/C=C(\C#N)C(=O)NCc2ccccc2)c2ccccc2n1CCCN(C)C :: 201
COc1ccc(CNC(=O)/C(C#N)=C/c2c(C)n(CCCN(C)C)c3ccccc23)cc1 :: 222
CCCCNC(=O)/C(C#N)=C/c1c(C)n(CCN(C)C)c2ccccc12 :: 300
COc1ccc(CNC(=O)/C(C#N)=C/c2c(C)n(CCN(C)C)c3ccccc23)cc1 :: 254
CN1CCCC1CCn1cc(C2=C(c3c[nH]c4ccccc34)C(=O)NC2=O)c2ccccc21 (configuration not stated) :: 100
Cc1cc2ccccc2n1CCCN(C)C :: 300
CCCCCCCCCCNC(=O)/C(C#N)=C/c1c(C)n(CCN(C)C)c2ccccc12 :: 10.1
